B1: Far upstream element-binding protein 1, residues 184 to 257; numbered along this chain, Q96AE4 (parent)
chain: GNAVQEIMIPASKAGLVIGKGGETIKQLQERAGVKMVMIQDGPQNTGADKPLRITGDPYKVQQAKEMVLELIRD

Variants of: B1
assay.comment: abundance fitness (aPCA) (normalised: wild type 0, dead -1); higher = more abundant; growth selection in yeast, the domain comes from the species named
condition: Homo sapiens
Listing: abundance fitness of selected variants
Answer using only a numeral; do not append any unit.

Use these answered entries as a reference point.
G19A | -0.339
L71D | -0.389
A32I | -0.034
S12D | 0.004

Input: What value of abundance fitness has been recorded for this entry: `Q27N`
Output: -0.012

Input: What value of abundance fitness has been recorded for this entry: `G56T`
Output: -1.12

Input: What value of abundance fitness has been recorded for this entry: `M36Q`
Output: -0.656

Input: What value of abundance fitness has been recorded for this entry: `A14N`
Output: -0.061

Input: What value of abundance fitness has been recorded for this entry: `G56S`
Output: -1.02

Input: What value of abundance fitness has been recorded for this entry: `V37G`
Output: -0.172

Input: What value of abundance fitness has been recorded for this entry: `V68A`
Output: -0.221

Input: What value of abundance fitness has been recorded for this entry: `L71R`
Output: -0.087
